I'd be grateful if you could share measured Kd for these entries.
# target-entity: T1, human GARP-proTGFβ1 complex (human, UniProt Q14392 20-627; P01137 30-390)
# T1 construct: also called hGARP-proTGFβ1; hGARP
# T1 sequence (Q14392 20-627, chain 1 of 2): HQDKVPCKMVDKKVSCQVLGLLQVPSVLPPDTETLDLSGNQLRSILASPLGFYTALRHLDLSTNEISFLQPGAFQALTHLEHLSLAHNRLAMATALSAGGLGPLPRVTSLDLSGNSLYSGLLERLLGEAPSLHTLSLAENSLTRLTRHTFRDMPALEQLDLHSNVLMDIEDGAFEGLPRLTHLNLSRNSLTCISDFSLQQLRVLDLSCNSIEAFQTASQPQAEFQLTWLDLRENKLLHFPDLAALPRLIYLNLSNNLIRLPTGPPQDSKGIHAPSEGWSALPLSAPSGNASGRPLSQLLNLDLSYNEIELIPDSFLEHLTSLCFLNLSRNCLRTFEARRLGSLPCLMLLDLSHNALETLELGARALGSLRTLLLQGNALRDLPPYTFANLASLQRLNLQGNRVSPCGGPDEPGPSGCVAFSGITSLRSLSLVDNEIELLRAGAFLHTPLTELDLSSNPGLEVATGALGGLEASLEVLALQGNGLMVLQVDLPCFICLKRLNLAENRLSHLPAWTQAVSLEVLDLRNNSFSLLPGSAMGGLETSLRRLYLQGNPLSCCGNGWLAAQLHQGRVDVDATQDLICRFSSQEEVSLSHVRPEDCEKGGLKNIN
# T1 sequence (P01137 30-390, chain 2 of 2): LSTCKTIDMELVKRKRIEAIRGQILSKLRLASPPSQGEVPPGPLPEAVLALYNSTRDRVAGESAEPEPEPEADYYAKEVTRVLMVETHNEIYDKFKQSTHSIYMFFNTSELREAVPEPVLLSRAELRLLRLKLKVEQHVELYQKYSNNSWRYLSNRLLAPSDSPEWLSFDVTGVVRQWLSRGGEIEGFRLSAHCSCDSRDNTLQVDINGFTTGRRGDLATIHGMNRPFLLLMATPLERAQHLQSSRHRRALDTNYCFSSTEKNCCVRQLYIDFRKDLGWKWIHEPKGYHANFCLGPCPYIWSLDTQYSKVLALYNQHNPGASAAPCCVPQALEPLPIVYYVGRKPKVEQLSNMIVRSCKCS
# experiment-summary: MSD-SET, solution equilibrium titration

Q: Fill in the blank: the reported Kd of Ab12 (antibody, IgG4, V domains shown) VH: QVQLVESGGGVVQPGRSLRLSCAASGFTFSDYAMVWVRQAPGKGLEWVSAISGSGFTTYYADSVKGRFTISRDNSKNTLYLQMNSLRAEDTAVYYCARVSSGHWDFDYWGQGTLVTVSS VL: DIQLTQSPSSLSASVGDRVTITCRASQSISSYLNWYQQKPGKAPKLLIYAASNLQSGVPSRFSGSGSGTDFTLTISSLQPEDFATYYCQQTYTVPLTFGGGTKVEIK is ____.
Ans: 1.7 nM

Q: Fill in the blank: the reported Kd of Ab20 (antibody, IgG4, V domains shown) VH: EVQLLESGGGLVQPGGSLRLSCAASGFTFSAYAMTWVRQAPGKGLEWVSAISGSGGVTYYADSVKGRFTISRDNSKNTLYLQMNSLRAEDTAVYYCARVSSGHWDYDYWGQGTLVTVSS VL: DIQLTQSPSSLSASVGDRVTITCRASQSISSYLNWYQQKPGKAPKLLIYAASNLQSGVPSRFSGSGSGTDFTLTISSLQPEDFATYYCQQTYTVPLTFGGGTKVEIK is ____.
Ans: 1.1 nM

Q: Fill in the blank: the reported Kd of Ab30 (antibody, IgG4, V domains shown) VH: EVQLVESGGGLVQPGGSLRLSCAASGFTFSSFSMDWVRQAPGKGLEWVSYISPDASTIYYADSVKGRFTISRDNAKNSLYLQMNSLRAEDTAVYYCARGTLDYGDMLDPWGQGTLVTVSS VL: DIQMTQSPSSLSASVGDRVTITCQASQDITNYLNWYQQKPGKAPKLLIYDASNLETGVPSRFSGSGSGTDFTFTISSLQPEDIATYYCQQADNHPPWTFGGGTKVEIK is ____.
Ans: 0.022 nM
